Assay: Tmax in BALB/c mouse at 20 mg/kg, po measured up to 24 hrs by LC-MS/MS analysis
Type: ADME, organism-based
Conditions: in vivo
Quantity Name: Tmax (h)

Chemical Smiles	Quantity Name	Endpoint Unit	Measured
Cc1ccc(C(=O)Nc2cc(C(F)(F)F)cc(C(F)(F)F)c2)cc1C#Cc1cc(-c2cnn(C)c2)cnc1N	Tmax	h	2.67

* * *

System: RBL-2H3
Assay: Antiallergic activity against anti-DNP-IgE sensitized rat RBL-2H3 cells assessed as […] of degranulation by measuring beta-hexosaminidase release using P-nitrophenyl-N-acetyl-D-glucosamide as substrate at 1 uM measured after 1 hr by microplate reader relative to control
Format: functional

Chemical Smiles	Endpoint Unit	inhibition at 1 µM
COc1cc(NC(=O)c2ccc(OC)c(C#Cc3cc(-c4cnn(C)c4)cnc3N)c2)cc(OC)c1	%	34
COc1cc(NC(=O)c2cccc(C#Cc3cc(-c4cnn(C)c4)cnc3N)c2OC)cc(OC)c1	%	22.8
COc1cc(NC(=O)c2ccc(C)c(C#Cc3cccnc3N)c2)cc(OC)c1	%	55.9
COc1cc(NC(=O)c2ccc(Br)c(C#Cc3cc(-c4cnn(C)c4)cnc3N)c2)cc(OC)c1	%	79.2
Cc1ccc(C(=O)Nc2ccccn2)cc1C#Cc1cc(-c2cnn(C)c2)cnc1N	%	60.6
COc1ccc(NC(=O)c2ccc(C)c(C#Cc3cc(-c4cnn(C)c4)cnc3N)c2)cc1	%	101
COc1ccc(NC(=O)c2ccc(C)c(C#Cc3cc(-c4cnn(C)c4)cnc3N)c2)cc1OC	%	82.2
Cc1ccc(C(=O)Nc2cccc(C(F)(F)F)c2)cc1C#Cc1cc(-c2cnn(C)c2)cnc1N	%	113
COc1cc(NC(=O)c2ccc(C)c(C#Cc3cc(-c4cnn(C)c4)cnc3N)c2)cc(OC)c1	%	108

FYI, the data here is from ChEMBL document CHEMBL4837249.
